# tested system: T1, Ytm1 (Chaetomium thermophilum ribosome assembly factor) (Chaetomium thermophilum, UniProt G0SFB5 1-495)
# T1 construct: Ytm1, Chaetomium thermophilum; YTM1 gene amplified from total cDNA and cloned in pOPIN-F; For MST, Ytm1 was labelled with the Red-NHS second-generation dye; source: Sf9 insect cells (baculovirus), purified (Histrap-HP Ni, Superdex 200 SEC)
# T1 sequence: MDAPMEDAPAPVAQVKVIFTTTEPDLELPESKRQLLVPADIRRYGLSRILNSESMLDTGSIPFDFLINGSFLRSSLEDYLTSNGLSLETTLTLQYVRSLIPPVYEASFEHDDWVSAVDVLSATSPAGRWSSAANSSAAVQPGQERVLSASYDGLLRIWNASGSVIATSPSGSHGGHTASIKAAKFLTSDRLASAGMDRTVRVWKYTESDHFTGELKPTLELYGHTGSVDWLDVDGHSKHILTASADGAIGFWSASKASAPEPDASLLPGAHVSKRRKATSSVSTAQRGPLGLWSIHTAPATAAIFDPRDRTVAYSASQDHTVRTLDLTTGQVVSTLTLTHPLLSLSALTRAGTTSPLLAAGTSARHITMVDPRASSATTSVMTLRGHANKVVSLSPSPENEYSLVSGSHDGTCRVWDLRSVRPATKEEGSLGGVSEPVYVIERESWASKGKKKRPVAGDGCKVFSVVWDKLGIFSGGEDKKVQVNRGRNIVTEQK
# method notes: MST; 5 nM Ytm1 labelled with Red-NHS second-generation dye; 50 mM HEPES pH 7.5, 150 mM NaCl, 0.1% Pluronic F-127; peptide in sixteen serial dilutions (P1 1,230-0.0751 µM; P3 maximum 1,580 µM); Monolith NT.115
# protocol conditions: both partners purified
metric: Kd
Please report the result as a number followed by the unit.

Check the records and state Kd for VWELLTGRQVW (Erb1, Chaetomium thermophilum, residues 479-489; source: synthetic peptide, bought: Synpeptide Co., Ltd., Shanghai) [Peptide P1 (Erb1 479-489)] 8.2 µM
